System: HCT-116
method description: NCI tumour cell line growth inhibition, 48 h
Active and inactive are the calls of the source. Rule as the data show it: active = GI50 up to about 1.1 µM and inactive = higher.
Outcomes you can answer with include only these: active, inactive

{"compound": "c1ccc(C2=NOC3(c4ccccc4)SC4CCCCC4CN23)cc1 (stereo not given)", "assigned label": "inactive"}
{"compound": "C=CCNC1=C2C[C@@H](C)C[C@@H](OC)[C@H](OC(=O)CCCCN)[C@H](C)/C=C(\\C)[C@@H](OC(N)=O)[C@H](OC)/C=C\\C=C(/C)C(=O)NC(=CC1=O)C2=O", "assigned label": "inactive"}
{"compound": "C=CCSC1=N/C(=C\\c2ccc(C)cc2)C(=O)N1CC=C", "assigned label": "inactive"}

Query: Per the records of this test, what outcome belongs to CC(=O)OCC1OC(N2C(=O)CC(N)=Nc3ccccc32)C(OC(C)=O)C(OC(C)=O)C1OC(C)=O (stereo not given) ?
Reply: inactive

Query: Same for CC(=O)Nc1ccc(S(=O)(=O)Nc2nnc(S(N)(=O)=O)s2)cc1
Reply: inactive

Query: Same for Cc1ncc(CO)c(CN)c1O
Reply: inactive

Query: Same for O=C1C2C=CC(C2)C(c2ccc(O)cc2)N1O (stereo not given)
Reply: inactive

Query: Same for COc1ccc(-c2c(C3=NCCCN3)nnn2-c2ccc([N+](=O)[O-])cc2)cc1
Reply: inactive

Query: Same for NCCCc1nonc1C(=O)O
Reply: inactive

Query: Same for COC1/C=C/C(C)C(C(C)C(OC)C(C)CCC(=O)C(C)C(CC(=O)O)OC)OC(=O)/C=C/C=C(\C)CC(OC)C(OC)C2=CC(=O)O[C@@H](C(C)C(OC)CC(OC)/C=C/C(C)C(O)C1)[C@H]2O (stereo not given in full)
Reply: active

Query: Same for Cc1ccc2c(c1)CC1(Cc3cccc(C)c3C1=O)C2=O (stereo not given)
Reply: inactive

Query: Same for CCOP(=O)(OCC)C(Nc1cccc(F)c1)c1ccccc1 (stereo not given)
Reply: inactive

Query: Same for O=C1c2ccccc2N2OC3C4CCC(C4)C3C12c1ccccc1 (stereo not given)
Reply: inactive

Query: Same for COC(=O)C1=C(C(=O)NNc2ccccc2)N(c2cccnc2Cl)C(c2ccccc2)=CC1c1ccccc1 (stereo not given)
Reply: inactive

Query: Same for CC(C)CCS(=O)(=O)OCCCCOS(=O)(=O)CCC(C)C
Reply: inactive

Query: Same for CN(CC(=O)O)Cc1c[nH]c2ccccc12
Reply: inactive

Query: Same for C=CCOc1cccc(C2(O)c3ccccc3C3=NCCCN32)c1 (stereo not given)
Reply: inactive

Query: Same for C1=N/CCNCCNCC/N=C/c2ccccc2OCc2cccc(n2)COc2ccccc2/1
Reply: inactive

Query: Same for O=C1c2ccccc2-c2oc(=O)c3ccccc3c21
Reply: inactive

Query: Same for CCC1CN2CCc3c([nH]c4ccccc34)[C@@](C(=O)OC)(c3cc4c(cc3OC)N(C)C3C(O)(C(=O)OC)C(C(=O)OC)C5(CC)C=CCN6CCC43C65)C[C@@H](C2)[C@@H]1C(C)(C)C (stereo not given in full)
Reply: active

###

Test system: UO-31
method description: NCI tumour cell line growth inhibition, 48 h
Active and inactive are the calls of the source. No stated cut-off is given here; in the data, active = GI50 up to about 1.1 µM and inactive = higher.
Outcomes you can answer with include only these: label 1 = active, label 0 = inactive

For orientation, consider the following solved cases.
{"compound": "c1ccc2c3c(c(N4CCNCC4)nc2c1)CCCC3", "assigned label": "label 0"}
{"compound": "Nc1cc(-c2ccccc2)nn1-c1nsc2ccccc12", "assigned label": "label 0"}
{"compound": "CSC1=Nc2ccccc2N=C(c2ccccc2)C1", "assigned label": "label 0"}
{"compound": "CCOc1ccccc1/C=C1\\NC(=O)N(/C=C2\\C(=O)Oc3ccccc3C2=O)C1=O", "assigned label": "label 0"}
{"compound": "O=C1OC(c2ccccc2)=N/C1=C\\c1c(O)cc(O)cc1O", "assigned label": "label 0"}
{"compound": "CCOP(=O)(OCC)C(Nc1cccc(F)c1)c1ccccc1 (stereo unspecified)", "assigned label": "label 0"}
{"compound": "CC(=O)OC(C)c1cc2c(s1)C(=O)c1c(C(C)OC(C)=O)csc1C2=O (stereo unspecified)", "assigned label": "label 0"}
{"compound": "CC(C)c1ccc(/C=C2/C=C(c3ccc4ccccc4c3)OC2=O)cc1", "assigned label": "label 0"}

Query: Per the records of this test, what outcome belongs to COc1ccc2c(c1)[n+]([O-])c(-c1ccc(C)cc1)c(N)[n+]2[O-] ?
Reply: label 0

Query: Same for O=C(c1no[n+]([O-])c1C(=O)c1csc2ccccc12)c1csc2ccccc12
Reply: label 1

Query: Same for C/C(=N/NC(=S)N1CCCCCC1)c1cccc(/C(C)=N\NC(=S)N2CCCCCC2)n1
Reply: label 0

###

Catalogue of GI50 readings, one per entry.
Tested on: HOP-18
method description: NCI tumour cell line growth inhibition, 48 h
Calls of active or inactive are those of the source. Cut-off read from the data, not from the text of the source: active = GI50 up to about 1.1 µM and inactive = higher.

{"molecule": "N#CC1C(C#N)C2(c3ccccc3)C(c3ccccc3)=NN(c3ccccc3)CC12 (stereo not given)", "GI50": "> 100 µM (inactive)"}
{"molecule": "COc1cc(/C=C/C(=O)c2cccc3ccccc23)cc(OC)c1OC", "GI50": "12.4 µM (inactive)"}
{"molecule": "COc1cc2c(cc1OC)C(C(c1ccccc1)c1ccccc1)N(C)CC2 (stereo not given)", "GI50": "> 100 µM (inactive)"}
{"molecule": "CCOC(=O)c1cnc2sc3ccc4ccccc4c3n2c1=O", "GI50": "> 100 µM (inactive)"}
{"molecule": "CC(C)(Oc1ccc(/C=C/C(=O)c2ccccc2)cc1)C(=O)Nc1c(Cl)cccc1Cl", "GI50": "> 10 µM (inactive)"}
{"molecule": "N#CC1(C#N)C(c2ccc(C3C(C#N)(C#N)C3(C#N)C#N)cc2)C1(C#N)C#N", "GI50": "> 100 µM (inactive)"}
{"molecule": "C=CC1(C)CC(=O)C2(O)C(C)(O1)C(OC(C)=O)C(O)C1C(C)(C)CCC(O)C12C (stereo not given)", "GI50": "41.3 µM (inactive)"}
{"molecule": "C/C(=N/OCCC(=O)O)C1CC1", "GI50": "> 100 µM (inactive)"}
{"molecule": "CC1=NN(C(=O)CC(=O)Nc2cccc(Cl)c2)C(=O)C1/N=N/c1ccc(S(N)(=O)=O)cc1 (stereo not given)", "GI50": "> 100 µM (inactive)"}

Okay, now this molecule:
Query: Param item = c1ccc(C2=NOC3(c4ccccc4)SC4CCCCC4CN23)cc1 (stereo not given) ; retrieve measured GI50.
Reply: 26.9 µM (inactive)

###

Catalogue of GI50 readings, one per entry.
Test system: TK-10
method description: NCI tumour cell line growth inhibition, 48 h
Activity calls are given as the source filed them. No stated cut-off is given here; in the data, active = GI50 up to about 1.1 µM and inactive = higher.

{"compound": "CSC(SC)=C(C(=O)O)P(=O)(O)O", "measured on": "TK-10", "readout kind": "GI50", "measured value": "> 100 µM (inactive)"}
{"compound": "CN(C)c1ccc(C2CC(c3ccc4ccccc4c3O)=NN2c2ccc([N+](=O)[O-])cc2[N+](=O)[O-])cc1 (stereo not drawn)", "measured on": "TK-10", "readout kind": "GI50", "measured value": "> 100 µM (inactive)"}

Okay, now this compound:
Query: Param item = COc1ccc(NC(=O)Oc2cc(C)c3ccc(=O)cc-3o2)c(OC)c1.COc1ccc(NC(=O)Oc2ccc3c(C)cc(=O)oc3c2)c(OC)c1 ; retrieve measured GI50.
Reply: > 100 µM (inactive)

###

Catalogue of GI50 readings, one per entry.
Test system: M14
method description: NCI tumour cell line growth inhibition, 48 h
The source made the active and inactive calls. No stated cut-off is given here; in the data, active = GI50 up to about 1.1 µM and inactive = higher.

Check out these entries, answers already filled in.
{"compound": "CSC(SC)=C(C(=O)O)P(=O)(O)O", "GI50": "> 100 µM (inactive)"}
{"compound": "Fc1ccc(-c2sc(-c3ccsc3)cc2Cc2ccsc2)cc1", "GI50": "> 10 µM (inactive)"}
{"compound": "N#Cc1c(N)n(-c2nc3ccccc3s2)c(=O)c2cc([N+](=O)[O-])ccc12", "GI50": "23.2 µM (inactive)"}
{"compound": "N=C(N)SCc1cc(Cl)cc(Cl)c1O", "GI50": "16.6 µM (inactive)"}
{"compound": "CC[C@@]12N=C(N(C)C)C[C@]1(O)ON=C2C", "GI50": "> 100 µM (inactive)"}
{"compound": "CCN(CC)CCCNc1nncc2cc3c([nH]c4ccc(OC)cc43)c(C)c12", "GI50": "12.9 µM (inactive)"}
{"compound": "OCC1C(/C=C/c2ccoc2)ON2CCCC12 (configuration not stated)", "GI50": "> 100 µM (inactive)"}
{"compound": "CCOC(=O)c1cc(C2=CCNC2=O)c(-c2cc(C)no2)[nH]1", "GI50": "51.1 µM (inactive)"}

Query: Param item = CC(C)(C)OC(=O)Nc1nnc(S(N)(=O)=O)s1 ; retrieve measured GI50.
Reply: > 100 µM (inactive)

Query: Same for Cn1c(=O)c2nc(Nc3ccccc3)[nH]c2n(C)c1=O
Reply: > 10 µM (inactive)

Query: Same for COc1cccc(C2CC(C)(N3CCCC3)Oc3cc4c(cc32)OCO4)c1O (configuration not stated)
Reply: 17.3 µM (inactive)

Query: Same for COc1ccc(-c2c(C3=NCCCN3)nnn2-c2ccc([N+](=O)[O-])cc2)cc1
Reply: > 100 µM (inactive)
